- Assay Method Text: Primary qHTS for delayed death inhibitors of the malarial parasite plastid, 96 hour incubation; further: potency means the concentration at half of the fitted maximal effect
- Condition Info: P. falciparum luciferase reporter growth; series mostly up to 28.7 µM
In all, about 320,000 compounds went through this assay and about 22,000 (6.9%) were called active. Not shown: some 27% with an inconclusive outcome. The full list was thinned out, with actives kept by preference.
Measured Quantity: Potency

> print(dat)
                               smiles.input  measured.quantity    value.measured
1  Cc1cc([N+](=O)[O-])ccc1NCc1cccc([N+](=O)[O-])c1            Potency  10.4 µM (active)
2  COc1ccc2c(c1)C(C)=CC(C)(C)N2C(=O)CNCc1ccc2c(c1)OCO2            Potency          inactive
3  COc1ccc2c(c1)C(C)=CC(C)(C)N2C(=O)Nc1ccccc1            Potency  10.4 µM (active)
4  Clc1ccc(C[n+]2cc(-c3ccc(Cl)cc3)n3c2CCC3)cc1            Potency  0.37 µM (active)

Turning now to a further compound:
Query string: Reported Potency, compound COc1ccc(CNC(=O)COC(=O)CCS(=O)(=O)c2ccc(C)cc2)cc1OC : ____
Result string: inactive

====

- Assay Method Text: Primary qHTS for delayed death inhibitors of the malarial parasite plastid, 96 hour incubation
- Condition Info: P. falciparum luciferase reporter growth; series mostly up to 28.7 µM
In all, about 320,000 compounds went through this assay and about 22,000 (6.9%) were called active. Not shown: some 27% with an inconclusive outcome. Calls come from the whole dose curve; as a rule, active = well fitted inhibition curve with a large enough effect; inconclusive = small, poorly fitted or top-dose-only effect, or another doubt; inactive = no such curve, though single readings can be large or run the other way. Many of the other results were omitted from the sample, so actives are more common in it than they were.
Tick one outcome: active, inactive

> print(dat)
                                  molecule  assigned.class
1  Cc1noc(C)c1C(=O)NCCc1ccc(S(N)(=O)=O)cc1        inactive

Query string: Returns: the outcome recorded for c1ccc2c(c1)C(=NC1CCCCC1)NC2=NC1CCCCC1 in this assay.
Result string: active

====

- Assay Method Text: Primary qHTS for delayed death inhibitors of the malarial parasite plastid, 96 hour incubation; further: potency means the concentration at half of the fitted maximal effect
- Condition Info: P. falciparum luciferase reporter growth; series mostly up to 28.7 µM
In all, about 320,000 compounds went through this assay and about 22,000 (6.9%) were called active. Roughly 27% stayed inconclusive and do not appear here. Shown is part of a subset that was picked to be rich in actives.
Measured Quantity: Potency

// known answers, use as guide
> print(dat)
                                   compound    value.measured
1  Cc1cc(=O)oc2cc(NC(=O)C(C)Oc3ccccc3)ccc12 (stereo not given)          inactive
2  Cc1onc(-c2c(Cl)cccc2Cl)c1C(=O)c1c[nH]c(C(=O)NC2CC2)c1          inactive
3  CCOc1cc2[nH]c(=S)n(Cc3ccc(C(=O)N4CCN(C)CC4)cc3)c(=O)c2cc1OCC          inactive
4  Cc1nn(Cc2ccccc2Cl)c(Cl)c1C(=O)OC(C(=O)NC(N)=O)C(C)C (stereo not given)  13.1 µM (active)

Turning now to a further compound:
Query string: Reported Potency, compound Cc1c(C)c(C)c(S(=O)(=O)NCCc2ccccn2)c(C)c1C : ____
Result string: inactive

====

- Assay Method Text: Primary qHTS for delayed death inhibitors of the malarial parasite plastid, 96 hour incubation
- Condition Info: P. falciparum luciferase reporter growth; series mostly up to 28.7 µM
- Source text: The goal of this screen is to discover new antimalarial compounds that act by inhibiting the development of the apicoplast in the malarial parasite Plasmodium falciparum. […] We have developed a cell-based assay that measures parasite growth based on the expression of an integrated copy of a firefly luciferase reporter. […] Growth inhibition is detected by a decrease in luciferase activity. […]
In all, about 320,000 compounds went through this assay and about 22,000 (6.9%) were called active. Roughly 27% stayed inconclusive and do not appear here. The call rests on the fitted dose curve; in most records, active means well fitted inhibition curve with a large enough effect; inconclusive means small, poorly fitted or top-dose-only effect, or another doubt; inactive means no such curve, though single readings can be large or run the other way. The sample holds actives, similar compounds and a random draw of the others, so the mix is not that of the screen.
Tick one outcome: TRUE for active, FALSE for inactive

Known results for molecules:
> print(dat)
                                   molecule  assigned.class
1      O=C(O)Cc1csc(-c2cccc(Oc3ccccc3)c2)n1           FALSE
2  CC(=O)c1c(C)n(-c2ccc(N(C)C)cc2)c2ccc(OCC(N)=O)cc12            TRUE

Query string: Returns: the outcome recorded for COc1ccccc1NC(=O)CSc1nnc(CNC(=O)c2ccccc2F)o1 in this assay.
Result string: TRUE

Query string: Another molecule: O=C(CN1CCC(O)(c2ccccc2)CC1)Nc1ccc2c(c1)OCCO2
Result string: FALSE

Query string: Another molecule: CC1CCCCC1NC(=O)CN1CCC(O)(c2ccc3c(c2)OCO3)CC1 (stereo not drawn)
Result string: TRUE

Query string: Another molecule: Cc1c(C(=O)N(C)CCc2cnn(C)c2)oc2c(F)cccc12
Result string: FALSE

Query string: Another molecule: COc1ccc(COC(=O)c2ccc(Cl)c(S(=O)(=O)N3CCOCC3)c2)cc1F
Result string: TRUE

Query string: Another molecule: COc1ccc(S(=O)(=O)NCC(c2ccco2)N2CCOCC2)cc1 (stereo not drawn)
Result string: FALSE
